# assay.target: Melanocyte-stimulating hormone receptor (Homo sapiens, UniProt Q01726)
# Sequence (Q01726 whole entry): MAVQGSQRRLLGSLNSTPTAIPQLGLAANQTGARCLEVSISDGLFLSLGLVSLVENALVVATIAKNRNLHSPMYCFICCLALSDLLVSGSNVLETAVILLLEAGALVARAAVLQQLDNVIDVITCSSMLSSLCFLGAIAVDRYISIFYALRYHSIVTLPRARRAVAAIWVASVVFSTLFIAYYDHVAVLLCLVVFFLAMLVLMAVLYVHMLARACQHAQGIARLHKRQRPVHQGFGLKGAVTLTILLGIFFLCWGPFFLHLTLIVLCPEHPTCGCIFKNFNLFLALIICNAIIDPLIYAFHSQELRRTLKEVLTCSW
# procedure.text: Displacement of [125I]-NDP-alpha-MSH from human MC1 receptor expressed in HEK293 cells by gamma counting analysis
reported.metric: IC50 (nM)

- CC(=O)N[C@H]1Cc2c([nH]c3ccccc23)CN([C@H](Cc2ccc(Br)cc2)C(=O)N[C@@H](CCCNC(=N)N)C(=O)N[C@@H](Cc2c[nH]c3ccccc23)C(N)=O)C1=O: 300

P = CC(=O)N[C@H]1Cc2c([nH]c3ccccc23)CN([C@H](Cc2ccc(F)cc2)C(=O)N[C@@H](CCCNC(=N)N)C(=O)N[C@@H](Cc2c[nH]c3ccccc23)C(N)=O)C1=O
Q = CC(=O)N[C@H]1Cc2c([nH]c3ccccc23)CN([C@H](Cc2ccccc2)C(=O)N[C@@H](CCCNC(=N)N)C(=O)N[C@@H](Cc2c[nH]c3ccccc23)C(N)=O)C1=O
R = CC(=O)N[C@H]1Cc2ccccc2CN([C@H](Cc2ccccc2)C(=O)N[C@@H](CCCNC(=N)N)C(=O)N[C@@H](Cc2c[nH]c3ccccc23)C(N)=O)C1=O
S = CC(=O)N[C@H]1Cn2nncc2CN([C@H](Cc2ccccc2)C(=O)N[C@@H](CCCNC(=N)N)C(=O)N[C@@H](Cc2c[nH]c3ccccc23)C(N)=O)C1=O
Query :: Hello, I need these entries ordered by IC50, highest reading first. Thanks! Reply: labels, ordered per the request.
Result :: S, Q, R, P

----------
# assay.target: Melanocortin receptor 4 (Homo sapiens)
# Sequence (P32245 whole entry): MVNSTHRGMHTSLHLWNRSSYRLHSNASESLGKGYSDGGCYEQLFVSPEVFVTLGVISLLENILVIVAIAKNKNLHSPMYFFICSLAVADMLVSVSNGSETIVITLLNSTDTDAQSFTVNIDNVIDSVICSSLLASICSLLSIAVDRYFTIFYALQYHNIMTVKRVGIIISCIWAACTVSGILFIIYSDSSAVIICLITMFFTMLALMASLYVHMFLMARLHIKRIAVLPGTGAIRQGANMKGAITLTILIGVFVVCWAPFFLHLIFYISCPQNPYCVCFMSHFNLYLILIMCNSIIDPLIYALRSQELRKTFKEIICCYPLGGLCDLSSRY
# procedure.text: Displacement of [125I]-NDP-alpha-MSH from human MC4 receptor expressed in HEK293 cells by gamma counting analysis
reported.metric: IC50 (nM)

* CC(=O)N[C@H]1Cc2ccccc2CN([C@H](Cc2ccccc2)C(=O)N[C@@H](CCCNC(=N)N)C(=O)N[C@@H](Cc2c[nH]c3ccccc23)C(N)=O)C1=O | 220

A = CC(=O)N[C@H]1Cc2c([nH]c3ccccc23)CN([C@H](Cc2ccccc2)C(=O)N[C@@H](CCCNC(=N)N)C(=O)N[C@@H](Cc2c[nH]c3ccccc23)C(N)=O)C1=O
B = CC(=O)N[C@H]1Cc2c([nH]c3ccccc23)CN([C@H](Cc2ccc(F)cc2)C(=O)N[C@@H](CCCNC(=N)N)C(=O)N[C@@H](Cc2c[nH]c3ccccc23)C(N)=O)C1=O
Query :: Lower IC50: A or B ? Kindly give the label for the entry you pick.
Result :: B
(B: 6.5 nM, A: 447 nM)

----------
# assay.target: Melanocortin receptor 5 (Homo sapiens)
# procedure.text: Displacement of [125I]-NDP-alpha-MSH from human MC5 receptor expressed in HEK293 cells by gamma counting analysis
pIC50: −log10 of the molar value.
reported.metric: pIC50

- CC(=O)N[C@H]1Cn2nncc2CN([C@H](Cc2ccccc2)C(=O)N[C@@H](CCCNC(=N)N)C(=O)N[C@@H](Cc2c[nH]c3ccccc23)C(N)=O)C1=O: 6.86

A = CC(=O)N[C@H]1Cc2c([nH]c3ccccc23)CN([C@H](Cc2ccc(F)cc2)C(=O)N[C@@H](CCCNC(=N)N)C(=O)N[C@@H](Cc2c[nH]c3ccccc23)C(N)=O)C1=O
B = CC(=O)N[C@H]1Cc2c([nH]c3ccccc23)CN([C@H](Cc2ccccc2)C(=O)N[C@@H](CCCNC(=N)N)C(=O)N[C@@H](Cc2c[nH]c3ccccc23)C(N)=O)C1=O
C = CC(=O)N[C@H]1Cc2ccccc2CN([C@H](Cc2ccccc2)C(=O)N[C@@H](CCCNC(=N)N)C(=O)N[C@@H](Cc2c[nH]c3ccccc23)C(N)=O)C1=O
D = CC(=O)N[C@H]1Cc2c([nH]c3ccccc23)CN([C@H](Cc2ccc(Br)cc2)C(=O)N[C@@H](CCCNC(=N)N)C(=O)N[C@@H](Cc2c[nH]c3ccccc23)C(N)=O)C1=O
Query :: Hello, I need these entries ordered by pIC50, highest reading first. Thanks! Reply: labels, ordered per the request.
Result :: C, D, A, B
(C: 7.43, D: 7.15, A: 6.78, B: 6.20)

----------
# assay.target: Melanocortin receptor 5 (Homo sapiens, UniProt P33032)
# Sequence (P33032 whole entry): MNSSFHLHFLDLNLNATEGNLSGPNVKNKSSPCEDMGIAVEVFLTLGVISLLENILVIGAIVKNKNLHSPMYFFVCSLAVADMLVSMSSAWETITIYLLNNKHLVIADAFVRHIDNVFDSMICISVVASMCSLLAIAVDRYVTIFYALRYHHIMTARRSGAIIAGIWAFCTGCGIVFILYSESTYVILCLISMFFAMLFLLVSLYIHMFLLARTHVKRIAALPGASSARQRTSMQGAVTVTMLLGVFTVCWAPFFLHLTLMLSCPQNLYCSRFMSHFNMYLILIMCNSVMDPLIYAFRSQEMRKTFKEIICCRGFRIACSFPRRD
# procedure.text: Antagonist activity at human MC5 receptor expressed in HEK293 cells assessed as cAMP accumulation at 10 uM by luminescence counter relative to MT-II
# Format: functional, cell-based
# Set-up: scale not given: the % may be the effect or the level left
reported.metric: Activity (%)

// known answers, use as guide
• CC(=O)N[C@H]1Cc2c([nH]c3ccccc23)CN([C@H](Cc2ccccc2)C(=O)N[C@@H](CCCNC(=N)N)C(=O)N[C@@H](Cc2c[nH]c3ccccc23)C(N)=O)C1=O = 0
• CC(=O)N[C@H]1Cc2c([nH]c3ccccc23)CN([C@H](Cc2ccc(Br)cc2)C(=O)N[C@@H](CCCNC(=N)N)C(=O)N[C@@H](Cc2c[nH]c3ccccc23)C(N)=O)C1=O = 0
• CC(=O)N[C@H]1Cc2ccccc2CN([C@H](Cc2ccccc2)C(=O)N[C@@H](CCCNC(=N)N)C(=O)N[C@@H](Cc2c[nH]c3ccccc23)C(N)=O)C1=O = 0

P = CC(=O)N[C@H]1Cc2c([nH]c3ccccc23)CN([C@H](Cc2ccc(F)cc2)C(=O)N[C@@H](CCCNC(=N)N)C(=O)N[C@@H](Cc2c[nH]c3ccccc23)C(N)=O)C1=O
Q = CC(=O)N[C@H]1Cn2nncc2CN([C@H](Cc2ccccc2)C(=O)N[C@@H](CCCNC(=N)N)C(=O)N[C@@H](Cc2c[nH]c3ccccc23)C(N)=O)C1=O
Query :: Out of P and Q , name the one with the higher Activity. Kindly give the label for the entry you pick.
Result :: P

----------
# assay.target: Melanocyte-stimulating hormone receptor (Homo sapiens, UniProt Q01726)
# procedure.text: Activity at human MC1 receptor expressed in HEK293 cells assessed as cAMP accumulation by luminescence counter
# Assay type: functional, cell-based
# condition.label: read-out: EC50
reported.metric: EC50 (nM)

* CC(=O)N[C@H]1Cn2nncc2CN([C@H](Cc2ccccc2)C(=O)N[C@@H](CCCNC(=N)N)C(=O)N[C@@H](Cc2c[nH]c3ccccc23)C(N)=O)C1=O | 750
* CC(=O)N[C@H]1Cc2ccccc2CN([C@H](Cc2ccccc2)C(=O)N[C@@H](CCCNC(=N)N)C(=O)N[C@@H](Cc2c[nH]c3ccccc23)C(N)=O)C1=O | 1000

a = CC(=O)N[C@H]1Cc2c([nH]c3ccccc23)CN([C@H](Cc2ccc(F)cc2)C(=O)N[C@@H](CCCNC(=N)N)C(=O)N[C@@H](Cc2c[nH]c3ccccc23)C(N)=O)C1=O
b = CC(=O)N[C@H]1Cc2c([nH]c3ccccc23)CN([C@H](Cc2ccc(Br)cc2)C(=O)N[C@@H](CCCNC(=N)N)C(=O)N[C@@H](Cc2c[nH]c3ccccc23)C(N)=O)C1=O
Query :: Out of a and b , name the one with the higher EC50. Kindly give the label for the entry you pick.
Result :: b
(b: 700 nM, a: 226 nM)

----------
# procedure.text: Retention time of the compound
# Type: physicochemical
reported.metric: Retention_time (min)

• CC(=O)N[C@H]1Cn2nncc2CN([C@H](Cc2ccccc2)C(=O)N[C@@H](CCCNC(=N)N)C(=O)N[C@@H](Cc2c[nH]c3ccccc23)C(N)=O)C1=O = 10.43
• CC(=O)N[C@H]1Cc2c([nH]c3ccccc23)CN([C@H](Cc2ccccc2)C(=O)N[C@@H](CCCNC(=N)N)C(=O)N[C@@H](Cc2c[nH]c3ccccc23)C(N)=O)C1=O = 13.05
• CC(=O)N[C@H]1Cc2c([nH]c3ccccc23)CN([C@H](Cc2ccc(Br)cc2)C(=O)N[C@@H](CCCNC(=N)N)C(=O)N[C@@H](Cc2c[nH]c3ccccc23)C(N)=O)C1=O = 14.85
• CC(=O)N[C@H]1Cc2c([nH]c3ccccc23)CN([C@H](Cc2ccc(F)cc2)C(=O)N[C@@H](CCCNC(=N)N)C(=O)N[C@@H](Cc2c[nH]c3ccccc23)C(N)=O)C1=O = 13.94
• CC(=O)N[C@H]1Cc2ccccc2CN([C@H](Cc2ccccc2)C(=O)N[C@@H](CCCNC(=N)N)C(=O)N[C@@H](Cc2c[nH]c3ccccc23)C(N)=O)C1=O = 13.35

----------
# assay.target: Melanocortin receptor 3 (Homo sapiens, UniProt P41968)
# Sequence (P41968 whole entry): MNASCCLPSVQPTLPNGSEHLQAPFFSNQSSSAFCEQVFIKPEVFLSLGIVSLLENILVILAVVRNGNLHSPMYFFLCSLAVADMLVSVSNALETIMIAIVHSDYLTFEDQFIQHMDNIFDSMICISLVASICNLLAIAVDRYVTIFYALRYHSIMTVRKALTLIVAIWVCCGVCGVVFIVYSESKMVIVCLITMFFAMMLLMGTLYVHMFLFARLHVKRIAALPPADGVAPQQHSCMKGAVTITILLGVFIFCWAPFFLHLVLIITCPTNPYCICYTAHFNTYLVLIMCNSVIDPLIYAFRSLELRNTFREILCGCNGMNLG
# procedure.text: Activity at human MC3 receptor expressed in HEK293 cells assessed as cAMP accumulation at 10 uM by luminescence counter relative to MT-II
# Type: functional, cell-based
reported.metric: Activity (%)

// known answers, use as guide
• CC(=O)N[C@H]1Cc2c([nH]c3ccccc23)CN([C@H](Cc2ccccc2)C(=O)N[C@@H](CCCNC(=N)N)C(=O)N[C@@H](Cc2c[nH]c3ccccc23)C(N)=O)C1=O = 20
• CC(=O)N[C@H]1Cc2c([nH]c3ccccc23)CN([C@H](Cc2ccc(Br)cc2)C(=O)N[C@@H](CCCNC(=N)N)C(=O)N[C@@H](Cc2c[nH]c3ccccc23)C(N)=O)C1=O = 50

a = CC(=O)N[C@H]1Cn2nncc2CN([C@H](Cc2ccccc2)C(=O)N[C@@H](CCCNC(=N)N)C(=O)N[C@@H](Cc2c[nH]c3ccccc23)C(N)=O)C1=O
b = CC(=O)N[C@H]1Cc2ccccc2CN([C@H](Cc2ccccc2)C(=O)N[C@@H](CCCNC(=N)N)C(=O)N[C@@H](Cc2c[nH]c3ccccc23)C(N)=O)C1=O
c = CC(=O)N[C@H]1Cc2c([nH]c3ccccc23)CN([C@H](Cc2ccc(F)cc2)C(=O)N[C@@H](CCCNC(=N)N)C(=O)N[C@@H](Cc2c[nH]c3ccccc23)C(N)=O)C1=O
Query :: Hello, I need these entries ordered by Activity, highest reading first. Thanks! Reply: labels, ordered per the request.
Result :: b, a, c
